TARGET_DESC: Recombinant human GR (Homo sapiens)
Construct: purchased Invitrogen P2816
MEASUREMENT_DESCRIPTION: Evaluation test for binding activity to glucocorticoid receptor: receptor competitor assay by fluorescence polarization (Invitrogen GR competitor assay kit, cat No. P2816)
CONDITION_CONTEXT: 20 μM test compound solution, 10 μL per well plus 5 μL 4×GS1 and 5 μL 4×GR solution; room temperature 2 to 4 hours; a ratio of 100% or more is indicated by 100%
Experimental: A detailed explanation of this matter will be described in the section of “Pharmacological Test” in Examples described below. In order to find the usefulness of the present compound as a pharmaceutical, a glucocorticoid receptor competitor assay was carried out by a fluorescence polarization method by using a glucocorticoid receptor competitor assay kit (manufactured by Invitrogen, cat No. P2816) to study the glucocorticoid receptor binding activity of the present compound. 1. […]
MEASURED_PROPERTY: inhibition at 20 µM (stock)

• COc1ccccc1NCc1c(-c2ccc(OC(=O)c3ccccc3)cc2OC)ccc2c1C(C)=CC(C)(C)N2 [Compound 1-3] = 95%
• COc1cc(OC(=O)c2ccccc2SC)ccc1-c1ccc2c(c1CNc1cc(F)ccc1C)C(C)=CC(C)(C)N2 [Compound 1-39] = 100%
• COc1ccccc1NCc1c(-c2ccc(OC(=O)c3ccccc3OC)cc2OC)ccc2c1C(C)=CC(C)(C)N2 [Compound 1-4] = 95%
• COc1ccccc1NCc1c(-c2ccc(OC(=O)c3cccc(C(C)=O)c3)cc2OC)ccc2c1C(C)=CC(C)(C)N2 [Compound 1-27] = 87%

====

TARGET_DESC: Recombinant human GR (Homo sapiens)
Construct: purchased Invitrogen P2816
MEASUREMENT_DESCRIPTION: Evaluation test for binding activity to glucocorticoid receptor: receptor competitor assay by fluorescence polarization (Invitrogen GR competitor assay kit, cat No. P2816)
CONDITION_CONTEXT: 20 μM test compound solution, 10 μL per well plus 5 μL 4×GS1 and 5 μL 4×GR solution; room temperature 2 to 4 hours; a ratio of 100% or more is indicated by 100%
MEASURED_PROPERTY: inhibition at 20 µM (stock)

- COc1ccc(C(=O)Oc2ccc(-c3ccc4c(c3CNc3ccccc3OC)C(C)=CC(C)(C)N4)c(OC)c2)cc1: 81%
- COc1cc(OC(=O)c2ccncc2)ccc1-c1ccc2c(c1CNc1cc(F)ccc1C)C(C)=CC(C)(C)N2: 100%
- COc1cc(OC(=O)c2occc2C)ccc1-c1ccc2c(c1CNc1cc(F)ccc1C)C(C)=CC(C)(C)N2: 100%
- COc1ccccc1NCc1c(-c2ccc(OC(=O)C(C)C)cc2OC)ccc2c1C(C)=CC(C)(C)N2: 99%

====

Each record here notes measured inhibition at 20 µM (stock).
TARGET_DESC: Recombinant human GR (Homo sapiens, UniProt P04150)
Construct: purchased Invitrogen P2816
Sequence (P04150 1-777): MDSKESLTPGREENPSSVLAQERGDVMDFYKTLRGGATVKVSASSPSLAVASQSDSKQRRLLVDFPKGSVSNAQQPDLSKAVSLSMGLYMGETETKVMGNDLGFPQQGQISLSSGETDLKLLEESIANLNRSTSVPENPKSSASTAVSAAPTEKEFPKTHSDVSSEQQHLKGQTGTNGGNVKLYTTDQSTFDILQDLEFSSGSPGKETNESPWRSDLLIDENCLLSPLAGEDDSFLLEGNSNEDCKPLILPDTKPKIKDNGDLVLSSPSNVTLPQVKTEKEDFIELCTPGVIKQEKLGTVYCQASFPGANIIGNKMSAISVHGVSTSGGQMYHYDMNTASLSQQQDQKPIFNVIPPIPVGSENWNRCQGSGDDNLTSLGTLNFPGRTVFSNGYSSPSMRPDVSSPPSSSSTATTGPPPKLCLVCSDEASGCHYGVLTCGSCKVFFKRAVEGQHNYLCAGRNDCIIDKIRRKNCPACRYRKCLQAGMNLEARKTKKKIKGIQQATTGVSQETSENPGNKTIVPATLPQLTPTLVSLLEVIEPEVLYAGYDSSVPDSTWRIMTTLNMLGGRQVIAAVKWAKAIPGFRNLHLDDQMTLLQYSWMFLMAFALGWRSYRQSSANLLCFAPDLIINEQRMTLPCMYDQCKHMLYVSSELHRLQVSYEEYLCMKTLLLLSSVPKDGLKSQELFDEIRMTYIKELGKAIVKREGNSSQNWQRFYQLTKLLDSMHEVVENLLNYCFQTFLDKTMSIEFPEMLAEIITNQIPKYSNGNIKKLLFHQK
MEASUREMENT_DESCRIPTION: Evaluation test for binding activity to glucocorticoid receptor: receptor competitor assay by fluorescence polarization (Invitrogen GR competitor assay kit, cat No. P2816)
CONDITION_CONTEXT: 20 μM test compound solution, 10 μL per well plus 5 μL 4×GS1 and 5 μL 4×GR solution; room temperature 2 to 4 hours; a ratio of 100% or more is indicated by 100%
Procedure: A detailed explanation of this matter will be described in the section of “Pharmacological Test” in Examples described below. In order to find the usefulness of the present compound as a pharmaceutical, a glucocorticoid receptor competitor assay was carried out by a fluorescence polarization method by using a glucocorticoid receptor competitor assay kit (manufactured by Invitrogen, cat No. P2816) to study the glucocorticoid receptor binding activity of the present compound. 1. […]
MEASURED_PROPERTY: inhibition at 20 µM (stock) (%)

* COc1ccccc1NCc1c(-c2ccc(OS(=O)(=O)C(C)C)cc2OC)ccc2c1C(C)=CC(C)(C)N2 | 100
* CCCS(=O)(=O)Oc1ccc(-c2ccc3c(c2CNc2cc(F)ccc2C)C(C)=CC(C)(C)N3)c(OC)c1 | 100
* COc1ccccc1NCc1c(-c2ccc(OC(=O)N3CCOCC3)cc2OC)ccc2c1C(C)=CC(C)(C)N2 | 96
* COc1ccccc1NCc1c(-c2ccc(OC(=O)c3ccccc3SC)cc2OC)ccc2c1C(C)=CC(C)(C)N2 | 90
* COc1ccccc1NCc1c(-c2ccc(OS(=O)(=O)C3CC3)cc2OC)ccc2c1C(C)=CC(C)(C)N2 | 100
* COc1ccccc1NCc1c(-c2ccc(OC(=O)c3sccc3Cl)cc2OC)ccc2c1C(C)=CC(C)(C)N2 | 88
* COc1ccccc1NCc1c(-c2ccc(OC(=O)c3occc3C)cc2OC)ccc2c1C(C)=CC(C)(C)N2 | 93
